measurement.target: UniProtKB Q59H18
Sequence (Q59H18 whole entry, looked up): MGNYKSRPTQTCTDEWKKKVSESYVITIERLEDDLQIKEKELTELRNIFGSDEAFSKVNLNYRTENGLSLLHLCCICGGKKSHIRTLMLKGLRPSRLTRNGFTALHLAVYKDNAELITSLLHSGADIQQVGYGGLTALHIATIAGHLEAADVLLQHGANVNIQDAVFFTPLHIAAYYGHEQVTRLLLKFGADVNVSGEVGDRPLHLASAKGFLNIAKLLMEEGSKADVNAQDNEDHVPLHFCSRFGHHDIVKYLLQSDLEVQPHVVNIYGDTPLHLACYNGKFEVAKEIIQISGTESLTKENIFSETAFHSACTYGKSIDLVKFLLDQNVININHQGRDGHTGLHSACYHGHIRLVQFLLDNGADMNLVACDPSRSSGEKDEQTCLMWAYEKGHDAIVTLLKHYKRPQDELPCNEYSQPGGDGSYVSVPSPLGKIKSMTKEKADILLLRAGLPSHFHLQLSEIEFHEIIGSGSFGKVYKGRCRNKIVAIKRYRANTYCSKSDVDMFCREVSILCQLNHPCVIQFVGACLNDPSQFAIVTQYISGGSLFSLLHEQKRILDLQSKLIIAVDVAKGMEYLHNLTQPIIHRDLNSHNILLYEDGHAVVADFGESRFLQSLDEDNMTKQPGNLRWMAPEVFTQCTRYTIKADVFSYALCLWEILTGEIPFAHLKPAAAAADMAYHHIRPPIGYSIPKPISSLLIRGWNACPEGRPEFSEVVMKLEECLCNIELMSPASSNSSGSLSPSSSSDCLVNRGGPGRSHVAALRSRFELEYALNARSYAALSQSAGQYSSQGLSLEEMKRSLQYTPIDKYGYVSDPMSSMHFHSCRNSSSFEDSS
test.description: KINOMEscan competition binding
condition.label: compound 10.0 µM
readout.label: kinase still bound, per cent of control
Include the unit after the number when you answer.

See these solved cases before continuing.
sample.smiles: CCC(=O)N1CCN(c2ccc(-n3c(=O)ccc4cnc5ccc(-c6cnc7ccccc7c6)cc5c43)cc2C(F)(F)F)CC1
kinase still bound, per cent of control: 66%

sample.smiles: COC(=O)Nc1ccc(-c2nc(N3CCOCC3)c3cnn(C4CCN(C(=O)OC)CC4)c3n2)cc1
kinase still bound, per cent of control: 100%

sample.smiles: COc1ccc(-c2ccc3c(N4CCOCC4)nc(N4C[C@@H](C)O[C@@H](C)C4)nc3n2)cc1CO
kinase still bound, per cent of control: 100%

Next molecule, kinase still bound, per cent of control to be filled in.
Ask: Hi! What's the reported kinase still bound, per cent of control for "CC(C)n1nc(-c2cc3cc(O)ccc3[nH]2)c2c(N)ncnc21" on UniProtKB Q59H18?
Reply: 14%
